# measurement-target: Cytochrome P450 2C8 (Homo sapiens, UniProt P10632)
# Sequence (P10632 whole entry): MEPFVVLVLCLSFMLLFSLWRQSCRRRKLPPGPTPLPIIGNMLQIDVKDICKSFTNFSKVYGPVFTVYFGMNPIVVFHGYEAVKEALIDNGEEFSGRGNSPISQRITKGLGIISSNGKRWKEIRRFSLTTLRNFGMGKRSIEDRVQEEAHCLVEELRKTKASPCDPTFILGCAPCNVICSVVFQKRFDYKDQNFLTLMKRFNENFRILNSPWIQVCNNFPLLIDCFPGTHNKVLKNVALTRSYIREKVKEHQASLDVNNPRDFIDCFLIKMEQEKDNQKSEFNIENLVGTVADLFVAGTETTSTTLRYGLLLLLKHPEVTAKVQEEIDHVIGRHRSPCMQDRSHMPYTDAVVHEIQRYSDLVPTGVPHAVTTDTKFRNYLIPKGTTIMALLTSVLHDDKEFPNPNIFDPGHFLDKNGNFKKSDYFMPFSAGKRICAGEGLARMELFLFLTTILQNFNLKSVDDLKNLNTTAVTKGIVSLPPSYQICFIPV
pIC50: −log10 of the molar value.
reported-endpoint: pIC50

// sample "CC[C@@H]1c2c(C#N)ncn2-c2cnc(Nc3cc(F)c(C(=O)NC4CCN(C)CC4)cc3OC)nc2N1C1CCCCC1" , its pIC50 was > 5.00
